The measurements presented in this section are drawn from paper PMC8398262.

# subject.of.test: hCA IX (Homo sapiens)
Label criterion met when Ki is strictly below 300 nM; at or above that, label criterion not met.

Some solved entries appear below for comparison.
[[record]]
molecule = "NS(=O)(=O)c1ccc(CCNC(=O)C2=C(c3ccccc3)SCCO2)cc1 [Compound 14b]"
subject_of_test = "hCA IX (Homo sapiens)"
assigned_category = "criterion met"

[[record]]
molecule = "NS(=O)(=O)c1ccc(-c2ccc(/C=c3\\sc4nc(-c5cccc(Cl)c5)nn4c3=O)o2)cc1 [Compound 17a]"
subject_of_test = "hCA IX (Homo sapiens)"
assigned_category = "criterion not met"

[[record]]
molecule = "COc1ccc(-c2nc3s/c(=C\\c4ccc(-c5ccc(S(N)(=O)=O)cc5)o4)c(=O)n3n2)cc1OC [Compound 17b]"
subject_of_test = "hCA IX (Homo sapiens)"
assigned_category = "criterion met"

[[record]]
molecule = "NS(=O)(=O)c1ccc(NC(=O)C2=C(c3ccccc3)SCCO2)cc1 [Compound 14a]"
subject_of_test = "hCA IX (Homo sapiens)"
assigned_category = "criterion met"


-- ask Regarding "NS(=O)(=O)c1ccc(NC(=O)c2cc3occc3n2Cc2ccccc2)cc1" , kindly confirm whether its Ki is beneath 300 nM.
-- reply criterion met

====

Measurement record for hCA XII (Homo sapiens); quantity recorded: Ki.
Just the number plus its unit, please.

The cases that follow already have their Ki on record.
[[record]]
compound = "NS(=O)(=O)c1ccc(-c2ccc(/C=c3\\sc4nc(-c5cccc(Cl)c5)nn4c3=O)o2)cc1 [Compound 17a]"
readout_name = "Ki"
assay_result = "7.6 nM"

[[record]]
compound = "Cn1c(C(=O)Nc2ccc(S(N)(=O)=O)cc2)cc2occc21"
readout_name = "Ki"
assay_result = "6.9 nM"

[[record]]
compound = "COc1ccc(-c2nc3s/c(=C\\c4ccc(-c5ccc(S(N)(=O)=O)cc5)o4)c(=O)n3n2)cc1OC [Compound 17b]"
readout_name = "Ki"
assay_result = "40.2 nM"

[[record]]
compound = "Cn1c(C(=O)Nc2ccc(S(N)(=O)=O)cc2)cc2sccc21"
readout_name = "Ki"
assay_result = "30.7 nM"


The compound identified as NS(=O)(=O)c1ccc(CCNC(=O)C2=C(c3ccccc3)SCCO2)cc1 [Compound 14b] registered its Ki at 6.6 nM

The compound identified as NS(=O)(=O)c1ccc(NC(=O)C2=C(c3ccccc3)SCCO2)cc1 [Compound 14a] registered its Ki at 6.1 nM

The compound identified as CC1(C(=O)Nc2ccc(S(N)(=O)=O)cc2)Oc2ccccc2NC1=O (centres unmarked) registered its Ki at 5.3 nM

The compound identified as "CCn1c(C(=O)Nc2ccc(S(N)(=O)=O)cc2)cc2sccc21" registered its Ki at 5.1 nM

====

# subject.of.test: hCA I (Homo sapiens)
# Construct: made in house
# Sequence (P00915 whole entry): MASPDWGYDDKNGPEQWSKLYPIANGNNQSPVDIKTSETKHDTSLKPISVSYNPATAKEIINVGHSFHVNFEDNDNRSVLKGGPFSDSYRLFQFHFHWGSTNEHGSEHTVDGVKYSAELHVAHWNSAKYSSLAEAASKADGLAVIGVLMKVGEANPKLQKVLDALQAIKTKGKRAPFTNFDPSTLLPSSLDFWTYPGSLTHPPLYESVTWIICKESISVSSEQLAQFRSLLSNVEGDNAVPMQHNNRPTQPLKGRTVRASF
# method: stopped-flow CO2 hydrase assay, hCA I
# Format: biochemical
# setup.conditions: mean from 3 different assays, errors ±5–10%
Reported pKi values for a set of molecules
Recall that pKi is obtained by taking minus log10 of the concentration measured in molar.

The cases that follow already have their pKi on record.
[[record]]
molecule = "Cn1c(C(=O)Nc2ccc(S(N)(=O)=O)cc2)cc2sccc21 [Compound 8a]"
readout_name = "pKi"
assay_result = 6.18

[[record]]
molecule = "NS(=O)(=O)c1ccc(-c2ccc(/C=c3\\sc4nc(-c5cccc(Cl)c5)nn4c3=O)o2)cc1 [Compound 17a]"
readout_name = "pKi"
assay_result = 5.53


Could you now consider this next molecule?
Value (pKi, hCA I (Homo sapiens)) for record NS(=O)(=O)c1ccc(CCNC(=O)C2=C(c3ccccc3)SCCO2)cc1 [Compound 14b] = 7.15

====

Measurement record for hCA I (Homo sapiens); quantity recorded: Ki.
Give just the number in nM; leave the unit off.

[[record]]
compound = "NS(=O)(=O)c1ccc(NC(=O)C2=C(c3ccccc3)SCCO2)cc1 [Compound 14a]"
readout_name = "Ki"
assay_result = 56.5

[[record]]
compound = "NS(=O)(=O)c1ccc(NC(=O)c2cc3sccc3n2Cc2ccccc2)cc1"
readout_name = "Ki"
assay_result = 400

[[record]]
compound = "COc1ccc(-c2nc3s/c(=C\\c4ccc(-c5ccc(S(N)(=O)=O)cc5)o4)c(=O)n3n2)cc1OC [Compound 17b]"
readout_name = "Ki"
assay_result = 918

[[record]]
compound = "NS(=O)(=O)c1ccc(NC(=O)c2cc3occc3n2Cc2ccccc2Cl)cc1"
readout_name = "Ki"
assay_result = 858


Could you now consider this next compound?
Value (Ki, hCA I (Homo sapiens)) for record CC1(C(=O)Nc2ccc(S(N)(=O)=O)cc2)Oc2ccccc2NC1=O (centres unmarked) = 70.6

====

readout.name: melting point

[[record]]
molecule = "NS(=O)(=O)c1ccc(NC(=O)c2cc3occc3n2Cc2ccccc2Cl)cc1 [Compound 7e]"
assay_result = "239 to 241 °C"

[[record]]
molecule = "CCn1c(C(=O)Nc2ccc(S(N)(=O)=O)cc2)cc2sccc21 [Compound 8b]"
assay_result = "248 to 249 °C"

[[record]]
molecule = "NS(=O)(=O)c1ccc(-c2ccc(/C=c3\\sc4nc(-c5cccc(Cl)c5)nn4c3=O)o2)cc1 [Compound 17a]"
assay_result = "312 to 315 °C"

[[record]]
molecule = "NS(=O)(=O)c1ccc(NC(=O)c2cc3occc3n2Cc2ccccc2)cc1 [Compound 7c]"
assay_result = "240 to 241 °C"

[[record]]
molecule = "COc1ccc(-c2nc3s/c(=C\\c4ccc(-c5ccc(S(N)(=O)=O)cc5)o4)c(=O)n3n2)cc1OC [Compound 17b]"
assay_result = "294 to 295 °C"

[[record]]
molecule = "NS(=O)(=O)c1ccc(NC(=O)c2cc3sccc3n2Cc2ccccc2)cc1 [Compound 8c]"
assay_result = "255 to 256 °C"


The molecule identified as NS(=O)(=O)c1ccc(NC(=O)c2cc3sccc3n2Cc2ccccc2F)cc1 [Compound 8d] registered its melting point at 235 to 237 °C

The molecule identified as NS(=O)(=O)c1ccc(NC(=O)c2cc3occc3n2Cc2ccc(Cl)cc2)cc1 [Compound 7f] registered its melting point at 237 to 238 °C

====

Measurement record for hCA II (Homo sapiens); quantity recorded: Ki.
Give just the number in nM; leave the unit off.

The cases that follow already have their Ki on record.
[[record]]
compound = "NS(=O)(=O)c1ccc(-c2ccc(/C=c3\\sc4nc(-c5cccc(Cl)c5)nn4c3=O)o2)cc1 [Compound 17a]"
unit_name = "nM"
assay_result = 44.7

[[record]]
compound = "NS(=O)(=O)c1ccc(CCNC(=O)C2=C(c3ccccc3)SCCO2)cc1 [Compound 14b]"
unit_name = "nM"
assay_result = 7.4

[[record]]
compound = "NS(=O)(=O)c1ccc(NC(=O)c2cc3occc3n2Cc2ccccc2)cc1"
unit_name = "nM"
assay_result = 37.5

[[record]]
compound = "NS(=O)(=O)c1ccc(NC(=O)C2=C(c3ccccc3)SCCO2)cc1 [Compound 14a]"
unit_name = "nM"
assay_result = 6.7

[[record]]
compound = "CC1(C(=O)Nc2ccc(S(N)(=O)=O)cc2)Oc2ccccc2NC1=O (centres unmarked)"
unit_name = "nM"
assay_result = 6.5

[[record]]
compound = "Cn1c(C(=O)Nc2ccc(S(N)(=O)=O)cc2)cc2sccc21"
unit_name = "nM"
assay_result = 8.8

[[record]]
compound = "NS(=O)(=O)c1ccc(NC(=O)c2cc3sccc3n2Cc2ccccc2F)cc1"
unit_name = "nM"
assay_result = 8.7


Could you now consider this next compound?
Value (Ki, hCA II (Homo sapiens)) for record COc1ccc(-c2nc3s/c(=C\c4ccc(-c5ccc(S(N)(=O)=O)cc5)o4)c(=O)n3n2)cc1OC [Compound 17b] = 59.4

====

readout.name: melting point

The cases that follow already have their melting point on record.
[[record]]
molecule = "NS(=O)(=O)c1ccc(NC(=O)c2cc3occc3n2Cc2ccccc2F)cc1"
assay_result = "240 to 242 °C"

[[record]]
molecule = "Cn1c(C(=O)Nc2ccc(S(N)(=O)=O)cc2)cc2sccc21"
assay_result = "276 to 278 °C"

[[record]]
molecule = "NS(=O)(=O)c1ccc(CCNC(=O)C2=C(c3ccccc3)SCCO2)cc1 [Compound 14b]"
assay_result = "208 to 209 °C"

[[record]]
molecule = "NS(=O)(=O)c1ccc(NC(=O)c2cc3sccc3n2Cc2ccc(Cl)cc2)cc1"
assay_result = "219 to 220 °C"

[[record]]
molecule = "CC1(C(=O)Nc2ccc(S(N)(=O)=O)cc2)Oc2ccccc2NC1=O (stereo not drawn)"
assay_result = "269 to 270 °C"


Could you now consider this next molecule?
The molecule identified as "Cn1c(C(=O)Nc2ccc(S(N)(=O)=O)cc2)cc2occc21" registered its melting point at 273 to 275 °C
